- ASSAY SYSTEM: T1, histidine-tagged human SORT1 (R&D Systems) (human, UniProt Q99523 78-755)
- T1 construct: Bought recombinant protein; also called His-tagged human SORT1; not shown: histidine tag
- T1 sequence: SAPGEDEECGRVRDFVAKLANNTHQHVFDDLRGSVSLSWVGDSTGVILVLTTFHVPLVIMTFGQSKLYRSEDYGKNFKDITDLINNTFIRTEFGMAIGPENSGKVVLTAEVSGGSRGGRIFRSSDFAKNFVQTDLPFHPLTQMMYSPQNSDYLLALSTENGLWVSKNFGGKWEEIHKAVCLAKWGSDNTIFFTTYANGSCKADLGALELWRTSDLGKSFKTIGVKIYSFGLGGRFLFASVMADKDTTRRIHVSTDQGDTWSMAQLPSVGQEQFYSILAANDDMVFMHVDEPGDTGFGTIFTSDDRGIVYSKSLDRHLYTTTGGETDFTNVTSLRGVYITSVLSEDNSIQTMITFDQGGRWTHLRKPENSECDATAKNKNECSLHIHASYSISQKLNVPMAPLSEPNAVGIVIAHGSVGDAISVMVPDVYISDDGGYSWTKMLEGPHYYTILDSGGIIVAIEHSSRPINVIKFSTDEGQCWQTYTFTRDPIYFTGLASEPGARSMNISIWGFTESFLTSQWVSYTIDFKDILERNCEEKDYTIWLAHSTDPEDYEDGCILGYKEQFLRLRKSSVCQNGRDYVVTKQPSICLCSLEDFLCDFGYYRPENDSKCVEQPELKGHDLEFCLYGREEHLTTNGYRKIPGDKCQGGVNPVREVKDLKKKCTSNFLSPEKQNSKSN
- TEST DETAILS: BLI (Octet RED96), antibody captured on anti-human IgG Fc sensor, 20 nM His-tagged human SORT1, 1:1 fit
MEASUREMENT TYPE: kon
Respond with the figure and its unit, in that order.

*Q* Can you look up the measured kon of S-60-15.15 [N33A] (antibody, human IgG1, kappa, L234A L235A, V domains shown, huIgG1 LALAPS) VH: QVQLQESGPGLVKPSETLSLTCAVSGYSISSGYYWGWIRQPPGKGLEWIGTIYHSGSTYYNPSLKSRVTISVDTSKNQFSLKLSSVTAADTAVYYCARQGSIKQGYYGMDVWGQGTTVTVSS VL: DIVMTQSPLSLPVTPGEPASISCRSSQSLLRSAGYNYLDWYLQKPGQSPQLLIYLGSNRASGVPDRFSGSGSGTDFTLKISRAEAEDVGVYYCMQQQEAPLTFGGGTKVEIKR for me?
*A* 493000 M⁻¹ s⁻¹

*Q* Can you look up the measured kon of S-60-15.14 [N33V] (antibody, human IgG1, kappa, L234A L235A, V domains shown, huIgG1 LALAPS) VH: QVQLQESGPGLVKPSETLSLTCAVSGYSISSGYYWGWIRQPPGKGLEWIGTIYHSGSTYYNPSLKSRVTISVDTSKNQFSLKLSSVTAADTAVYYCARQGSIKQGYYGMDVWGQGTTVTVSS VL: DIVMTQSPLSLPVTPGEPASISCRSSQSLLRSVGYNYLDWYLQKPGQSPQLLIYLGSNRASGVPDRFSGSGSGTDFTLKISRAEAEDVGVYYCMQQQEAPLTFGGGTKVEIKR for me?
*A* 445000 M⁻¹ s⁻¹

*Q* Can you look up the measured kon of S-60-15.2 [N33S] (antibody, human IgG1, kappa, L234A L235A, V domains shown, huIgG1 LALAPS) VH: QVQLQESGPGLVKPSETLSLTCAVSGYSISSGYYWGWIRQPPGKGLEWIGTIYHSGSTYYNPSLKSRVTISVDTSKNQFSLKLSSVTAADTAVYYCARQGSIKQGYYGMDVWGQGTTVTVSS VL: DIVMTQSPLSLPVTPGEPASISCRSSQSLLRSSGYNYLDWYLQKPGQSPQLLIYLGSNRASGVPDRFSGSGSGTDFTLKISRAEAEDVGVYYCMQQQEAPLTFGGGTKVEIKR for me?
*A* 563000 M⁻¹ s⁻¹
